Source of measurements: patent US5504190A

Molecular target: monoclonal antibody (mAb) 125-10F3
Assay: competitive ELISA, inhibition of mAb 125-10F3 binding to plate-adsorbed polypeptide SEQ ID NO:1
Conditions: later study completing the Ac-Tyr-Pro series ("in this study"); read-out: IC-50
From the text: Monoclonal antibody (mAb) 125-10F3 was used in these studies, which binds specifically to a 13-residue polypeptide […](SEQ ID NO:1) Appel et al., J. Immunol., 144:976-983 (1990)!. The antigenic determinant recognized by the mAb is Pro-Tyr-Pro-Asn-Leu-Ser (SEQ ID NO:2), determined previously using individual omission analogs of the polypeptide as is seen in FIG. 2. […]
outcome-measure: IC50
Field: value (include unit after the number)

Report measured IC50; entry is Ac-YPNLSN-NH2 [Ac-Tyr-Pro-Asn-Leu-Ser-Asn-NH2] 150 nM

Report measured IC50; entry is Ac-PYPNLS-NH2 [Ac-Pro-Tyr-Pro-Asn-Leu-Ser-NH2] 40 nM

----------
Tested on: human red blood cells
Type: cell-based
Would you mind sorting the entries by HD-50 according to these classes? lower band (below 60 µg/mL), central band (60 µg/mL to below 200 µg/mL), upper band (200 µg/mL or more)

Which bin, given its HD-50, does Ac-FRWLLR-NH2 [FRWLLR] occupy? central band

Which bin, given its HD-50, does Ac-FRWLLK-NH2 [FRWLLK] occupy? upper band

Which bin, given its HD-50, does Ac-YRRWWRF-NH2 [YRRWWRF] occupy? upper band

Which bin, given its HD-50, does Ac-FRWLLF-NH2 [FRWLLF] occupy? lower band

Which bin, given its HD-50, does Ac-RRWWCY-NH2 [RRWWCY] occupy? lower band

Which bin, given its HD-50, does Ac-RRWWRFF-NH2 [RRWWRFF] occupy? central band

Which bin, given its HD-50, does Ac-RRWWCH-NH2 [RRWWCH] occupy? central band

Which bin, given its HD-50, does Ac-IRRWWRF-NH2 [IRRWWRF] occupy? central band

Which bin, given its HD-50, does Ac-WRRWWRF-NH2 [WRRWWRF] occupy? central band

Which bin, given its HD-50, does Ac-RRWWCW-NH2 [RRWWCW] occupy? lower band

Which bin, given its HD-50, does Ac-RRWWCK-NH2 [RRWWCK] occupy? upper band

----------
Test system: Vero (monkey kidney) cell monolayers
Type: cell-based
outcome-measure: Toxic Concentration (µg/mL)
Could you give me the number in µg/mL? Just the number is fine.

Look up and report measured Toxic Concentration (Vero (monkey kidney) cell monolayers) for the following substance: Ac-RRWWCM-NH2 [RRWWCM] 10

Look up and report measured Toxic Concentration (Vero (monkey kidney) cell monolayers) for the following substance: Ac-RRWWRW-NH2 [RRWWRW] 25

Look up and report measured Toxic Concentration (Vero (monkey kidney) cell monolayers) for the following substance: Ac-RRWWRR-NH2 [RRWWRR] 25

Look up and report measured Toxic Concentration (Vero (monkey kidney) cell monolayers) for the following substance: Ac-RRWWCA-NH2 [RRWWCA] 25

Look up and report measured Toxic Concentration (Vero (monkey kidney) cell monolayers) for the following substance: Ac-RRWWCF-NH2 [RRWWCF] 10

Look up and report measured Toxic Concentration (Vero (monkey kidney) cell monolayers) for the following substance: Ac-RRWWCG-NH2 [RRWWCG] 10

Look up and report measured Toxic Concentration (Vero (monkey kidney) cell monolayers) for the following substance: Ac-RRWWCK-NH2 [RRWWCK] 10
